Numbers sourced from paper PMC12030706.

- PROTOCOL: Ex vivo biodistribution in PC-3 tumor-bearing mice
- CONDITION PARAMETERS: male, NOD.Cg-Rag1^tm1Mom Il2rg^tm1Wjl/SzJ (NRG), mouse, tumor/kidney, total radioactivity, Tumor/kidney uptake ratio, 24 h post-injection
Numbered stars: 1 amine (or outer) side, 2 acyl side, 3 side chain; on linkers, the order of the positions; unused ones are H or OH. Square brackets hold non-standard residues; d marks the D form. Peptide text beside a SMILES is read from it. * marks the point of attachment. DOTA = O=C(O)CN1CCN(CC(=O)O)CCN(CC(=O)*)CCN(CC(=O)O)CC1; NMeH = CN[C@@H](Cc1c[nH]cn1)C(=O)O; X1 = O=C(CN1CCC(N[*:1])CC1)[*:2]; Tle = CC(C)(C)[C@H](N)C(=O)O; Thz = O=C(O)[C@@H]1CSCN1
PARAMETER MEASURED: tissue to tissue ratio at 24 h
// return a plain number; no unit text

>  <COMPOUND>
CC(C)C[C@H](NC(=O)[C@H](Cc1cnc[nH]1)N(C)C(=O)CNC(=O)[C@@H](NC(=O)[C@H](C)NC(=O)[C@H](Cc1c[nH]c2ccccc12)NC(=O)[C@H](CCC(N)=O)NC(=O)[C@@H](Cc1ccccc1)NC(=O)CN1CCC(NC(=O)CN2CCN(CC(=O)O)CCN(CC(=O)O)CCN(CC(=O)O)CC2)CC1)C(C)(C)C)C(=O)N1CSC[C@H]1C(N)=O [[^177Lu]Lu-LW01110, metal not drawn]

>  <VALUE MEASURED>
4.86

$$$$

Please find the next compound below.
Please report the measured tissue to tissue ratio at 24 h for CC(C)C[C@H](NC(=O)[C@H](Cc1cnc[nH]1)N(C)C(=O)CNC(=O)[C@@H](NC(=O)[C@H](C)NC(=O)[C@H](Cc1c[nH]c2ccccc12)NC(=O)[C@H](Cc1c[nH]cn1)NC(=O)[C@@H](Cc1ccccc1)NC(=O)CN1CCC(NC(=O)CN2CCN(CC(=O)O)CCN(CC(=O)O)CCN(CC(=O)O)CC2)CC1)C(C)(C)C)C(=O)N1CSC[C@H]1C(N)=O [[^177Lu]Lu-LW01142, metal not drawn] ({DOTA}-[X1][dF]HWA[Tle]G[NMeH]L[Thz]-NH2)
2.88
